As shown below, each of these compounds has a reported pIC50 value.
biological target: DNA gyrase (Staphylococcus aureus, UniProt P0A0K8+P20831); test: Inhibition of Staphylococcus aureus DNA gyrase; format: protein-complex assay
Sequence (P0A0K8 whole entry): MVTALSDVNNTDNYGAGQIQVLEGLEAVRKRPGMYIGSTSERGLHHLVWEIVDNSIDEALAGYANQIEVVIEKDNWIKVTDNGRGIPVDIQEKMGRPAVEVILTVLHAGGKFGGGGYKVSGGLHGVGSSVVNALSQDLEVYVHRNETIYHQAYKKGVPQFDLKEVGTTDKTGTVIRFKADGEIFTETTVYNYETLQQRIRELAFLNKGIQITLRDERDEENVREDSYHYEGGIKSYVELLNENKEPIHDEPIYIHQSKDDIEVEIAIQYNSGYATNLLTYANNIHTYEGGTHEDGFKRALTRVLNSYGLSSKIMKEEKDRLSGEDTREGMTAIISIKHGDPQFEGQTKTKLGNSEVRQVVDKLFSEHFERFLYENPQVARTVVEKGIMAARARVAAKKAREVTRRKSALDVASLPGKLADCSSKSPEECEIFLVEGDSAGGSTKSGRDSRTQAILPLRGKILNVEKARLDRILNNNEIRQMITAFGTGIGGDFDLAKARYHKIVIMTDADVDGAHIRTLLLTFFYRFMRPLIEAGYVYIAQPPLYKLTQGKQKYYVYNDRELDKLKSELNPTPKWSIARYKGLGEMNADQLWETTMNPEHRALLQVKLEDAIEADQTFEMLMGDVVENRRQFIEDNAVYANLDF
Sequence (P20831 whole entry): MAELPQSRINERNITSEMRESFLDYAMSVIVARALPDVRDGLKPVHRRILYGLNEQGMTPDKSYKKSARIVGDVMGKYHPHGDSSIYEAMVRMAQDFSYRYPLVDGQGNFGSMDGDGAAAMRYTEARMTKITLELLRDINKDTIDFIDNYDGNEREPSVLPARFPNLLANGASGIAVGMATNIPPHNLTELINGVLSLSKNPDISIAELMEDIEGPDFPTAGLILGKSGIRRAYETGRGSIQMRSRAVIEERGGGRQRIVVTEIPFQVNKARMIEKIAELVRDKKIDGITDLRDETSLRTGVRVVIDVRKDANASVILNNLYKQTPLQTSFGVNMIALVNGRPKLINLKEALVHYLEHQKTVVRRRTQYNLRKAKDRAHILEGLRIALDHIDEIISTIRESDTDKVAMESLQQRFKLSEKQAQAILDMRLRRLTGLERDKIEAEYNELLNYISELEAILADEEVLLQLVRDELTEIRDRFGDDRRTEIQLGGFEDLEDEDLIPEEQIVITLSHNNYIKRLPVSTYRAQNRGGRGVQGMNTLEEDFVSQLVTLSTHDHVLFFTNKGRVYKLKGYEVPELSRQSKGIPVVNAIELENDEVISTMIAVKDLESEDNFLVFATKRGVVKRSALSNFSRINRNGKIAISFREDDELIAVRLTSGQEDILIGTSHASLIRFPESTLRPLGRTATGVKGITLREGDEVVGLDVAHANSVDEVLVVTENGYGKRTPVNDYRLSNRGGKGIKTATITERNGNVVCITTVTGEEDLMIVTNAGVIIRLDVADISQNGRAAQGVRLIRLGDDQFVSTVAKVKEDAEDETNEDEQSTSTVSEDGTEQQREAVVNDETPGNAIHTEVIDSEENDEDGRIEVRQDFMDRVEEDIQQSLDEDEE
The meaning of pIC50 here: minus log10 of the concentration in molar units.

{"RECORD SMILES": "O=C(O)CCC(=O)Nc1ccc(NC(=O)c2ccco2)cc1", "PARAMETER MEASURED": "pIC50", "QUANTITATIVE READOUT": 4.89}

Retrieve pIC50 measured for CCn1cc(C(=O)N[C@H](CCCNC(=N)N)C(=O)N[C@@H](CC2CCCCC2)C(=O)N[C@H](CCCNC(=N)N)C(=O)N[C@@H](CC2CCCCC2)C(=O)N[C@H](CCCNC(=N)N)C(=O)N[C@@H](CC2CCCCC2)C(N)=O)c(=O)c2ccc(C)nc21 and print it.
4.60

Retrieve pIC50 measured for COc1ccc2ccc(F)c(CC(=O)N/N=C/c3ccc(F)cc3F)c2n1 and print it.
3.43

Retrieve pIC50 measured for CCn1cc(C(=O)N[C@@H](CC2CCCCC2)C(=O)N[C@H](CCCNC(=N)N)C(=O)N[C@@H](CC2CCCCC2)C(=O)N[C@H](CCCNC(=N)N)C(=O)N[C@@H](CC2CCCCC2)C(=O)N[C@H](CCCNC(=N)N)C(=O)N[C@@H](CC2CCCCC2)C(N)=O)c(=O)c2ccc(C)nc21 and print it.
4.60

====

target: DNA gyrase subunit A/DNA gyrase subunit B (Mycobacterium tuberculosis (strain ATCC 25618 / H37Rv), UniProt P9WG45+P9WG47); test: Inhibition of Mycobacterium tuberculosis DNA gyrase; assay type: protein-complex assay
Sequence (P9WG45 whole entry): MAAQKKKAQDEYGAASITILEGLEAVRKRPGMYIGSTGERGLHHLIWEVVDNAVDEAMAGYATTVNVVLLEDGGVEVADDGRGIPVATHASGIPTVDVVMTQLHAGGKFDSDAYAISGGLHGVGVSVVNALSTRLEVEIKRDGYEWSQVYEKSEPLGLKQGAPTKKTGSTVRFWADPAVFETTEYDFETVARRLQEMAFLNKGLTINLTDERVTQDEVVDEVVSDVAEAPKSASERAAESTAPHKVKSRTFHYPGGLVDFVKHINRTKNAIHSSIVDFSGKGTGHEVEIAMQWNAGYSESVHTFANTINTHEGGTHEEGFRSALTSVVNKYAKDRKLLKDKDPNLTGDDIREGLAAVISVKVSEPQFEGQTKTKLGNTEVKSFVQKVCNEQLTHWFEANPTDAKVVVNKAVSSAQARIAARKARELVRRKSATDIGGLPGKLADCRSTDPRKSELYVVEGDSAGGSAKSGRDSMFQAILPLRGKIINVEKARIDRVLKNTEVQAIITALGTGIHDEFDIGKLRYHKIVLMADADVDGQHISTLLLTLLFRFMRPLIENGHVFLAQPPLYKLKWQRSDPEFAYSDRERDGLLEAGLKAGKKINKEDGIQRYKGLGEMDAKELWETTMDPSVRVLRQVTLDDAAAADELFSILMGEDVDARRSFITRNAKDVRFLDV
Sequence (P9WG47 whole entry): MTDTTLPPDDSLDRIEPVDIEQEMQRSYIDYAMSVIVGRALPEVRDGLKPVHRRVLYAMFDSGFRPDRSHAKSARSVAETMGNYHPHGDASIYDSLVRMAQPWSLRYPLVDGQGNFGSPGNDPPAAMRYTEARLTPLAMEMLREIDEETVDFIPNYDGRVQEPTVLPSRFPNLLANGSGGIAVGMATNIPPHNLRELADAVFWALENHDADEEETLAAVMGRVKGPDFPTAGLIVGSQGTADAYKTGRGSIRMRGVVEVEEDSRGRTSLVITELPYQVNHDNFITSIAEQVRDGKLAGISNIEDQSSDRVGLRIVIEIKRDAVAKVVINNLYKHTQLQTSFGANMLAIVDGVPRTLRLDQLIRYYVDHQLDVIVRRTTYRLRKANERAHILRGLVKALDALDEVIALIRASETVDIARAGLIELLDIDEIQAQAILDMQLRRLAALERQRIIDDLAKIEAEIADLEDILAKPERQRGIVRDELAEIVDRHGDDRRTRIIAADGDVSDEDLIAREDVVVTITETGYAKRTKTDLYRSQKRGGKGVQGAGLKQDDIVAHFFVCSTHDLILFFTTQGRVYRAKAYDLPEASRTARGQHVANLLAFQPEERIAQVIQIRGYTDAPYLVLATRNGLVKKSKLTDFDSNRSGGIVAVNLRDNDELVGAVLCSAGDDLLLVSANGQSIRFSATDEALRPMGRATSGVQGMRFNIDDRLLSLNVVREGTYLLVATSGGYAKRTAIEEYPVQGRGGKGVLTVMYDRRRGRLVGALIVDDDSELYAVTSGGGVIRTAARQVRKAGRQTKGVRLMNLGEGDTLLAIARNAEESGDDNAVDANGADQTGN
PARAMETER MEASURED: pIC50
The meaning of pIC50 here: minus log10 of the concentration in molar units.

{"COMPOUND": "COc1c(N2CCCCC2)c(F)cc2c(=O)c(C(=O)N3CCSC3)cn(C3CC3)c12", "pIC50": 3.98}

Now look at this one.
Retrieve pIC50 measured for COc1c(N2CC3CCCCC3C2)c(F)cc2c(=O)c(C(=O)N3CCSC3)cn(C3CC3)c12 (configuration not stated) and print it.
3.98

====

target: DNA gyrase (Escherichia coli, UniProt P0AES4+P0AES6); experiment: Inhibition of Escherichia coli DNA gyrase
As shown below, each of these molecules has a reported pIC50 value.
The meaning of pIC50 here: minus log10 of the concentration in molar units.

Worked cases, pIC50 given:
{"RECORD SMILES": "O=C(O)c1cn(C2CC2)c2cc(N3CCN(Cn4nc(CN5CCN(c6ccccc6)CC5)n(Cc5ccccc5)c4=O)CC3)c(F)cc2c1=O", "pIC50": 6.12}
{"RECORD SMILES": "O=C1COc2ccc(CNC3CCN(CCn4c(=O)c5nocc5c5ncccc54)CC3)nc2N1", "pIC50": 6.35}
{"RECORD SMILES": "CCn1cc(-c2nnc(Nc3ccc(OC)cc3)o2)c(=O)c2cc(Br)c(C)nc21", "pIC50": 5.07}
{"RECORD SMILES": "CCn1cc(-c2nc(NC(=O)c3ccccc3)n[nH]2)c(=O)c2ccc(C)nc21", "pIC50": 4.98}
{"RECORD SMILES": "CC(C)COc1cc(C(=O)NCC(=O)O)ccc1NC(=O)c1cc(Cl)c(Cl)[nH]1", "pIC50": 4.33}
{"RECORD SMILES": "CCn1cc(-c2nc(/N=C/c3ccc(Br)cc3)n[nH]2)c(=O)c2cc(Br)c(C)nc21", "pIC50": 5.47}
{"RECORD SMILES": "O=C(O)C(=O)Nc1nc2ccc(NC(=O)c3cc(Br)c(Br)[nH]3)cc2s1", "pIC50": 7.24}
{"RECORD SMILES": "CCNC(=O)Nc1nc2ccc(NC(=O)Cc3csc(NC(C)=O)n3)cc2s1", "pIC50": 5.25}

Now look at this one.
Retrieve pIC50 measured for O=C1COc2cc(F)c(CNC3CCN(CCn4c(=O)c5nocc5c5ccc(F)cc54)CC3)nc2N1 and print it.
6.39
